Let's look at some compounds and their measured inhibition at 1 µM.
biological target: human μ-opiate receptor (Homo sapiens, UniProt P35372); construct: purchased NEN, Zaventem, Belgium RB-HOM; host or cells: CHO-K1 cells (membrane preparation); assay: μ-opiate receptor binding assay with [3H] naloxone (WGA-SPA beads); settings: 1 μmol/l test substance; 1 nmol/l [3H] naloxone; CHO-K1 cell membranes expressing human μ-opiate receptor
Sequence (P35372 whole entry): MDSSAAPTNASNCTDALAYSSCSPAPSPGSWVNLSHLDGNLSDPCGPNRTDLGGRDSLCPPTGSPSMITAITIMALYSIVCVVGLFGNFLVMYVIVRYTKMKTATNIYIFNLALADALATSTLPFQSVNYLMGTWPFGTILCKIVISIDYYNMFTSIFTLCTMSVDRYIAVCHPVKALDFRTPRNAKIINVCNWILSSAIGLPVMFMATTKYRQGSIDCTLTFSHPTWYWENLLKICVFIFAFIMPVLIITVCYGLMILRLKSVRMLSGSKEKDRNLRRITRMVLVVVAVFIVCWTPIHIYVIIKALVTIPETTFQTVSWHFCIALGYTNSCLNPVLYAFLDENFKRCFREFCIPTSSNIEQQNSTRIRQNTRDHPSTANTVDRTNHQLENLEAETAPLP
Experimental endpoint: inhibition at 1 µM

* CN(C)C1(c2cccs2)CCN(C(=O)CC(NCc2ccc3[nH]ccc3c2)c2ccccc2)CC1 (stereo not shown) | 92%
* CN(CCN1CCC(c2ccccc2)(N2CCCC2)CC1)Cc1ccc2cc[nH]c2c1 | 71%
* CC(CC(=O)N1CCCC(C(=O)N2CCC(c3ccccc3)(N(C)C)CC2)C1)c1c[nH]c2ccccc12 (stereo not shown) | 84%
* CN(C)C1(c2ccccc2)CCN(C(=O)CCNCc2ccc3cc[nH]c3c2)CC1 | 80%
* CC(C)c1ccc2c(CN(C)CCN3CCC(c4ccccc4)(N(C)C)CC3)c[nH]c2c1 | 95%
* CN(C)C1(c2ccccc2)CCN(C(=O)C2CCCN(Cc3c[nH]c4ccc(Br)cc34)C2)CC1 (stereo not shown) | 89%
* CN(CCCN1CCC(c2ccccc2)(N(C)C)CC1)C(=O)CCc1cn(C)c2ccccc12 | 79%
* CN(C)C1(c2cccs2)CCN(C(=O)CC(NC(=O)c2ccc3ccn(C)c3c2)c2ccccc2)CC1 (stereo not shown) | 96%
* CC(C)C(C(=O)N1CCC(c2ccccc2)(N(C)C)CC1)N(C)C(=O)Cc1c[nH]c2ccc(Br)cc12 (stereo not shown) | 84%
* CN(CCN1CCC(c2ccccc2)(N2CCCC2)CC1)C(=O)c1c[nH]c2ccccc12 | 20%
* CN(CCN1CCC(c2ccccc2)(N2CCCC2)CC1)C(=O)Cc1c[nH]c2ccc(Br)cc12 | 57%
* CC(CC(=O)N(C)CCCN1CCC(c2cccs2)(N(C)C)CC1)c1c[nH]c2ccccc12 (stereo not shown) | 89%
* CCCCC1(N(C)C)CCN(CCN(C)C(=O)CCc2cn(C)c3ccccc23)CC1 | 52%
* CN(C(=O)c1ccc2ccn(C)c2c1)C(C(=O)N1CCC(c2cccs2)(N(C)C)CC1)c1ccccc1 (stereo not shown) | 82%
* CC(C)C(CC(=O)N(C)C(C(=O)N1CCC(c2cccs2)(N(C)C)CC1)c1ccccc1)c1c[nH]c2ccccc12 (stereo not shown) | 91%
* CN(C)C1(c2cccs2)CCN(C(=O)CC(NCc2c[nH]c3ccccc23)c2ccccc2)CC1 (stereo not shown) | 96%

* * *

molecular target: ORL1 receptor (Homo sapiens, UniProt P41146); construct: expressed in transfected cells; host or cells: CHO (recombinant CHO-ORL1 cells), membranes; test: ORL1 receptor binding assay with 3H-nociceptin/orphanin FQ (WGA-SPA beads); settings: c=1 μM test substance; 0.5 nM 3H-nociceptin/orphanin FQ; membranes of recombinant CHO-ORL1 cells
Sequence (P41146 whole entry): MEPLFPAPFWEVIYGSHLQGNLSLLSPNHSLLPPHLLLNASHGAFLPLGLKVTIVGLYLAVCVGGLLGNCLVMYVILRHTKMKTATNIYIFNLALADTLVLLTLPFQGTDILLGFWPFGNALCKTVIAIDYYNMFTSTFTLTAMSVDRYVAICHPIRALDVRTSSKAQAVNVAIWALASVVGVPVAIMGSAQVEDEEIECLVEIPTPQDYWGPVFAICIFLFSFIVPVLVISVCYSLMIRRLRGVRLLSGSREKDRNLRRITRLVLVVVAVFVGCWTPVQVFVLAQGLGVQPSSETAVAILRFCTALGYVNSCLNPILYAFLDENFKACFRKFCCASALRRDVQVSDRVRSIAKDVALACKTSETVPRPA
Label no (0) if inhibition at 1 µM falls below 40%; label yes (1) in every other case.

- CCCCC1(N(C)C)CCN(CCN(C)C(=O)Cc2c[nH]c3cc(F)ccc23)CC1: yes (1)
- CC(CC(=O)NC(CC(=O)N1CCC(c2cccs2)(N(C)C)CC1)c1ccccc1)c1c[nH]c2ccccc12 (centres unmarked): yes (1)
- CN(C)c1ccc2cc(C(=O)NCCC(=O)N3CCC(c4ccccc4)(N(C)C)CC3)[nH]c2c1: yes (1)
- CN(C)C1(c2ccccc2)CCN(C(=O)CCNC(=O)CCc2c[nH]c3ccccc23)CC1: yes (1)
- CN(C)C1(c2cccs2)CCN(C(=O)CC(NCc2ccc3[nH]ccc3c2)c2ccccc2)CC1 (centres unmarked): yes (1)
- CCCCC1(N(C)C)CCN(CCN(C)Cc2c[nH]c3ccccc23)CC1: no (0)

* * *

molecular target: human μ-opiate receptor (Homo sapiens); construct: purchased NEN, Zaventem, Belgium RB-HOM; host or cells: CHO-K1 cells (membrane preparation); test: μ-opiate receptor binding assay with [3H] naloxone (WGA-SPA beads); settings: 1 μmol/l test substance; 1 nmol/l [3H] naloxone; CHO-K1 cell membranes expressing human μ-opiate receptor; 1 µM
Experimental endpoint: % Inhibition (μ) at 1 μM (%)

• CN(CCN1CCC(c2ccccc2)(N(C)C)CC1)C(=O)c1cc2cc(F)ccc2[nH]1 = 92
• CN(CCN1CCC(c2ccccc2)(N(C)C)CC1)C(=O)Cc1c[nH]c2cc(F)ccc12 = 99
• CN(CCN1CCC(c2ccccc2)(N(C)C)CC1)C(=O)c1ccc2ccn(C)c2c1 = 94
• CN(CCN1CCC(c2ccccc2)(N(C)C)CC1)Cc1cccc2[nH]ccc12 [Example 194] = 99

* * *

target: human μ-opiate receptor (Homo sapiens); construct: purchased NEN, Zaventem, Belgium RB-HOM; host or cells: CHO-K1 cells (membrane preparation); test: μ-opiate receptor binding assay with [3H] naloxone (WGA-SPA beads); details: 1 μmol/l test substance; 1 nmol/l [3H] naloxone; CHO-K1 cell membranes expressing human μ-opiate receptor
Let's look at some molecules and their measured inhibition at 1 µM.
Experimental endpoint: inhibition at 1 µM (%)

- CC(C)C(C(=O)N1CCC(c2ccccc2)(N(C)C)CC1)N(C)C(=O)CCc1c[nH]c2ccccc12 (stereo not shown): 71
- CN(CCCN1CCC(c2cccs2)(N(C)C)CC1)C(=O)c1ccc2ccn(C)c2c1: 88
- CN(C)C1(c2cccs2)CCN(C(=O)CNC(=O)C2CCCc3c2[nH]c2ccc(Cl)cc32)CC1 (stereo not shown): 83
- CC(CC(=O)NCCC(=O)N1CCC(c2ccccc2)(N(C)C)CC1)c1c[nH]c2ccccc12 (stereo not shown): 93

* * *

molecular target: human μ-opiate receptor (Homo sapiens, UniProt P35372); construct: purchased NEN, Zaventem, Belgium RB-HOM; host or cells: CHO-K1 cells (membrane preparation); experiment: μ-opiate receptor binding assay with [3H] naloxone (WGA-SPA beads); conditions: 1 μmol/l test substance; 1 nmol/l [3H] naloxone; CHO-K1 cell membranes expressing human μ-opiate receptor
Let's look at some molecules and their measured inhibition at 1 µM.
Experimental endpoint: inhibition at 1 µM (%)

• CN(C)C1(c2ccccc2)CCN(C(=O)CCNC(=O)c2ccc3cc[nH]c3c2)CC1 = 89
• CN(C)C1(c2cccs2)CCN(C(=O)CNCc2cccc3cc[nH]c23)CC1 = 96
• CN(CCN1CCC(c2ccccc2)(N2CCCC2)CC1)C(=O)Cc1c[nH]c2cc(F)ccc12 = 62
• CN(C(=O)Cc1c[nH]c2cc(F)ccc12)C(C(=O)N1CCC(c2cccs2)(N(C)C)CC1)c1ccccc1 (centres unmarked) = 81
• CCCCC1(N(C)C)CCN(CCN(C)C(=O)c2c[nH]c3ccccc23)CC1 = 61
• CN(C)C1(c2ccccc2)CCN(C(=O)C2CCCN(C(=O)CCc3cn(C)c4ccccc34)C2)CC1 (centres unmarked) = 71
• CN(C)C1(c2ccccc2)CCN(C(=O)C2CCCN(Cc3ccc4[nH]ccc4c3)C2)CC1 (centres unmarked) = 41
• CN(CCCN1CCC(c2cccs2)(N(C)C)CC1)C(=O)c1ccc2cc[nH]c2c1 = 70
• COc1ccc2[nH]c(C(=O)N(C)CCCN3CCC(c4ccccc4)(N(C)C)CC3)cc2c1 = 71
• CN(C)c1ccc2cc(C(=O)NCCC(=O)N3CCC(c4ccccc4)(N(C)C)CC3)[nH]c2c1 = 60
• CN(C)C1(c2ccccc2)CCN(C(=O)CCNC(=O)C2CCCc3c2[nH]c2ccc(Cl)cc32)CC1 (centres unmarked) = 52
• CN(C)C1(c2ccccc2)CCN(C(=O)C2CN(C(=O)c3ccc4ccn(C)c4c3)c3ccccc32)CC1 (centres unmarked) = 97
• CC(CC(=O)NC(CC(=O)N1CCC(c2cccs2)(N(C)C)CC1)c1ccccc1)c1c[nH]c2ccccc12 (centres unmarked) = 97
• CN(C)C1(c2cccs2)CCN(C(=O)CNC(=O)c2ccc3ccn(C)c3c2)CC1 = 81
• CN(C)C1(c2ccccc2)CCN(C(=O)CCNCc2cccc3cc[nH]c23)CC1 = 97
• CN(CCN1CCC(c2ccccc2)(N2CCCC2)CC1)C(=O)c1cccc2c1ccn2C = 40
• CCCCC1(N(C)C)CCN(CCN(C)Cc2c[nH]c3ccccc23)CC1 = 81
• CN(CCN1CCC(c2ccccc2)(N(C)C)CC1)C(=O)C1CCCc2c1[nH]c1ccc(Cl)cc21 (centres unmarked) = 68
• CN(C(=O)CCc1c[nH]c2ccccc12)C(C(=O)N1CCC(c2cccs2)(N(C)C)CC1)c1ccccc1 (centres unmarked) = 92
• CCCCC1(N(C)C)CCN(CCN(C)C(=O)c2ccc3cc[nH]c3c2)CC1 = 66
• CC(C)C(C(=O)N1CCC(c2ccccc2)(N(C)C)CC1)N(C)Cc1ccc2cc[nH]c2c1 (centres unmarked) = 54
• CN(C)C1(c2cccs2)CCN(CCNCc2c[nH]c3ccccc23)CC1 = 76
• CN(CCCN1CCC(c2cccs2)(N(C)C)CC1)C(=O)CCc1cn(C)c2ccccc12 = 80
• Cc1[nH]c2ccccc2c1CNC(CC(=O)N1CCC(c2cccs2)(N(C)C)CC1)c1ccccc1 (centres unmarked) = 92
• COc1ccc2[nH]cc(CNCCN3CCC(c4cccs4)(N(C)C)CC3)c2c1 = 99
• CN(CCN1CCC(c2ccccc2)(N(C)C)CC1)C(=O)c1cc2cc(F)ccc2[nH]1 = 94
• CN(C)C1(c2ccccc2)CCN(C(=O)CCNCc2ccc3[nH]ccc3c2)CC1 = 78
• CN(C)C1(c2cccs2)CCN(C(=O)CC(NCc2ccc3cc[nH]c3c2)c2ccccc2)CC1 (centres unmarked) = 91
• CCCCC1(N(C)C)CCN(CCN(C)C(=O)c2cc3cc(F)ccc3[nH]2)CC1 = 65
• CN(CCCN1CCC(c2ccccc2)(N(C)C)CC1)C(=O)Cc1c[nH]c2cc(F)ccc12 = 82
• Cc1c(CN(C)CCCN2CCC(c3cccs3)(N(C)C)CC2)c2ccccc2n1C = 100
• CN(CCN1CCC(c2ccccc2)(N(C)C)CC1)C(=O)c1ccc2cc[nH]c2c1 = 95
